# test_details: chemical genetic growth profiling, strain panel (AID 1159580);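 further: tested at 20 µM; growth read once vehicle control cultures reached saturation at 30 °C; 1 = growth at the plate median or of vehicle wells; lower values mean less growth of the strain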
# experimental_parameters: S. cerevisiae deletion strains, growth OD, locus YJL187C, strain SWE1 (second series), active compounds read low
The whole screen tested about 5,500 compounds, of which about 2,000 (36%) were called active. Another 18% or so got no clear call; they are omitted. The list shows a part of the results.
Each item that follows carries a reported normalized growth.
# respond with the number and nothing more

Examples with answers:
compound | normalized growth
Cc1occc(=O)c1O | 1.01
OC[C@@H]1CCCN2CCCC[C@H]12 | 1.02
Nc1nc2ncc(C(=O)O)nc2c(=O)[nH]1 | 1.01

Q: Entry under review: `Cc1occc(=O)c1/C=C/O` . Reported normalized growth?
Result: 0.998

Q: Now consider CCCC1O[C@@H]2CC3C4CCC5=CC(=O)C=CC5(C)C4[C@@H](O)CC3(C)[C@]2(C(=O)CO)O1 (some centres undefined) .
Result: 1

Q: Same question for COC(=O)C[C@H]1C(C)(C)C(=O)[C@@H]2CC3=C4CC(=O)O[C@@H](c5ccoc5)[C@]4(C)CCC3[C@@]1(C)C2=O (some centres undefined) please.
Result: 1.02

Q: And what about the compound `COc1c2c(cc3c1OCO3)CCN(C)C2` ?
Result: 1.01

Q: Another compound: `COC(C)(C)CCC[C@H](C)C/C=C/C(C)=C/C(=O)OC(C)C`
Result: 1.02

Q: Another compound to check: CC(=O)c1c(O)c(C)c(O)c2c1OC1=CC(=O)C(C(C)=O)C(=O)C12C (centres undefined)
Result: 1.01

###

# test_details: chemical genetic growth profiling, strain panel (AID 1159580)
# experimental_parameters: S. cerevisiae deletion strains, growth OD, locus YIL125W, strain kgd1, active compounds read low
The whole screen tested about 5,500 compounds, of which about 2,000 (36%) were called active. Roughly 18% stayed inconclusive and do not appear here. The list shows a part of the results.
molecules and their reported normalized growth
Reply: number alone, nothing else.

Known results for molecules:
molecule | normalized growth
O=C(O)CCCCC1CCSS1 (configuration not stated) | 0.99
CC(=O)NCCCCCC(=O)O | 0.981
C1CCN2CC3CC(CN4CCCCC34)C2C1 (configuration not stated) | 1
C=CC(C)(O)CC/C=C(\C)CCC=C(C)C (configuration not stated) | 1.02
O=C1CCCC2C3CC(CN12)[C@@H]1CCCCN1C3 (some centres not stated) | 0.994

Q: Given the molecule CSCCC(NC=O)C(=O)NC(C)C(=O)O (configuration not stated) , what is its reported normalized growth?
Result: 0.987

Q: Okay, and CC(=O)O[C@@H]1CC2C(C)(C)C=CC(=O)[C@]2(C)C2CC[C@@]3(C)[C@H](c4ccoc4)OC(=O)C4OC43[C@@]21C (some centres not stated) ?
Result: 1.01

Q: Repeat for the following molecule: `OC[C@@H]1CCCN2CCCC[C@H]12`
Result: 1.01

Q: Quick one: CC(=O)O[C@@H]1C[C@@]2(C)[C@H](c3ccoc3)C[C@H]3O[C@]32[C@]2(C)C(=O)C(O)=C3C(C)(C)C(=O)C=C[C@]3(C)C12 (some centres not stated)
Result: 0.966

Q: # iterate: CC1(C)CC2C1(O)CCC1(C)C=CC(O)C21CO (configuration not stated)
Result: 0.976

Q: Same question for CC1(C)C(O)CC(O)C2(C)C1CC(O)C1(C)C2CCC2(C)C(c3ccoc3)CC3OC321 (configuration not stated) please.
Result: 1.01

Q: Consider next the molecule `O=[N+]([O-])c1cc(O)c(O)c([N+](=O)[O-])c1` in the same way.
Result: 0.972

###

# test_details: chemical genetic growth profiling, strain panel (AID 1159580)
# experimental_parameters: S. cerevisiae deletion strains, growth OD, locus YPL241C, strain CIN2, active compounds read low
About 2,000 (36%) of roughly 5,500 compounds were called active. About 18% were inconclusive and are not listed. Some of the results follow.
experimental_endpoint: normalized growth
Write the number on its own, no unit after it.

Solved entries:
molecule | endpoint_value
O=C(NCCSCc1ccco1)Nc1cc(Cl)cc(Cl)c1 | 0.937
O=[N+]([O-])c1ccc2nc(N3CCNCC3)ccc2c1 | 1.01
O=C1OC2COC(=O)C2C=C1NC(=O)c1ccc(Cl)cc1 (stereo not drawn) | 0.975
C=C[C@@H](C1=CC(=O)C(OC)=C(OC)C1=O)c1ccccc1 | 0.523
O=[N+]([O-])c1ccc2nsnc2c1 | 0.286

Q: Sample C=CC(C1=CC(=O)C(OC)=CC1=O)c1ccccc1 (stereo not drawn) — what was its normalized growth?
Result: 0.962

Q: Check `CC(=O)Nc1cc([N+](=O)[O-])ccc1-n1cc(C)c(C(F)(F)F)n1` too.
Result: 1.03

Q: Note, next up: `COC(=O)Oc1ccccc1C(=O)O`
Result: 1

Q: Now the same for `COc1ccc(NS(=O)(=O)c2c(C)noc2C)cc1`
Result: 0.911

Q: Try `CNc1ccccc1C(=O)O` next.
Result: 0.999

Q: Now consider `O=C(NC(=S)NCc1ccncc1)c1ccccc1` .
Result: 1.02

Q: Again, but for `CC(=O)Nc1cc([As](=O)(O)O)ccc1O`
Result: 1

Q: Try this molecule too: C=CC(C1=CC(=O)C(OC)=CC1=O)c1ccc(OC)cc1 (stereo not drawn)
Result: 0.982

###

# test_details: chemical genetic growth profiling, strain panel (AID 1159580);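 further: tested at 20 µM; growth read once vehicle control cultures reached saturation at 30 °C; 1 = growth at the plate median or of vehicle wells; lower values mean less growth of the strain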
# experimental_parameters: S. cerevisiae deletion strains, growth OD, locus YBR021W, strain FUR4
The campaign covered roughly 5,500 compounds. About 2,000 (36%) were called active. Roughly 18% stayed inconclusive and do not appear here. Rule as the data show it: active = normalized growth mostly below about 0.91 (no sharp cut-off); inconclusive = no clear call, values can overlap the other calls; inactive = mostly above about 0.92. The list shows a part of the results.
Log the outcome using a class from active, inactive

compound | cat
CN1C(CC(=O)c2ccccc2)CCCC1CC(O)c1ccccc1 (stereo not drawn) | inactive
Oc1c(Br)cc(Br)c2cccnc12 | active
Cc1ccc(/C(=C\CN2CCCC2)c2ccccn2)cc1 | inactive
C=CC(C1=CC(=O)C(OC)=CC1=O)c1ccc(O)cc1 (stereo not drawn) | inactive

Q: Hey, what did the test say about `COc1cc2c(c(OC)c1OC)-c1ccc(OC)c(=O)cc1[C@@H](NC(C)=O)CC2` ?
Result: inactive

Q: # repeat for CSCCC(NC=O)C(=O)NC(C)C(=O)O (stereo not drawn)
Result: inactive

Q: Same question, `CCN(CC)CCOc1ccc(/C(=C(\Cl)c2ccccc2)c2ccccc2)cc1` this time
Result: active

Q: Here is the next compound: C=CC(C)(O)CC/C=C(\C)CCC=C(C)C (stereo not drawn)
Result: inactive

Q: Try the compound `Cc1occc(=O)c1/C=C/O`
Result: inactive

Q: Please answer likewise for `Cc1occc(=O)c1O`
Result: inactive

Q: Consider next the compound `COc1cc(OC)c2c(=O)c(-c3ccccc3)c(C)oc2c1OC` in the same way.
Result: inactive

Q: Record: `COc1cc2c(c(OC)c1OC)-c1ccc(O)c(=O)cc1[C@@H](NC(C)=O)CC2`
Result: inactive

Q: Consider next the compound CC(=O)O[C@@H]1CC2C(C)(C)C=CC(=O)[C@]2(C)C2CC[C@@]3(C)[C@H](c4ccoc4)OC(=O)C4OC43[C@@]21C (stereo partly drawn) in the same way.
Result: inactive

###

# test_details: chemical genetic growth profiling, strain panel (AID 1159580);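 further: tested at 20 µM; growth read once vehicle control cultures reached saturation at 30 °C; 1 = growth at the plate median or of vehicle wells; lower values mean less growth of the strain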
# experimental_parameters: S. cerevisiae deletion strains, growth OD, locus YNL322C, strain KRE1, active compounds read low
In all, about 5,500 compounds went through this assay and about 2,000 (36%) were called active. Another 18% or so got no clear call; they are omitted. The list shows a part of the results.
normalized growth: recorded values
Could you keep your reply to the number by itself?

# count of solved cases: 5
compound | endpoint_value
COc1cc2c(c(OC)c1OC)-c1ccc(O)c(=O)cc1[C@@H](NC(C)=O)CC2 | 0.639
CCCn1c(C)c(C(=O)c2ccc3ccccc3c2)c2ccccc21 | 0.991
CC(=O)N/C(=C/c1ccc2c(c1)OCO2)C(=O)O | 1
CN(/N=C\c1ccccc1)c1ncc(C(F)(F)F)cc1Cl | 0.974
CCC(Cc1c(I)cc(I)c(N)c1I)C(=O)O (configuration not stated) | 1

Q: I would be grateful if you could share the reported normalized growth for `CCCCCCNC(=O)NCCCCCC` .
Result: 0.914

Q: Next compound: `C/C=C/c1ccc2c(c1)OCO2`
Result: 1.01

Q: COc1ccc(OC)c(S(=O)(=O)N2CCc3cc(OC)c(OC)cc3C2C)c1 (configuration not stated) ?
Result: 1

Q: Param item: `c1ccc2c(c1)cc1ccc3cccc4ccc2c1c34`
Result: 1.02

Q: Param item: `CC(C)(C)NC[C@@H](O)COc1nsnc1N1CCOCC1`
Result: 0.993

###

# test_details: chemical genetic growth profiling, strain panel (AID 1159580);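 further: tested at 20 µM; growth read once vehicle control cultures reached saturation at 30 °C; 1 = growth at the plate median or of vehicle wells; lower values mean less growth of the strain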
# experimental_parameters: S. cerevisiae deletion strains, growth OD, locus YEL061C, strain CIN8 (second series), active compounds read low
The campaign covered roughly 5,500 compounds. About 2,000 (36%) were called active. Roughly 18% stayed inconclusive and do not appear here. The list shows a part of the results.
Reported normalized growth is given for each of the following compounds.
Kindly provide the number alone.

Example entries and their recorded answers appear below.
compound | experimental_endpoint | endpoint_value
C=CC(C)(O)CC/C=C(\C)CCC=C(C)C (stereo unspecified) | normalized growth | 0.978
NCC(O)c1ccc(O)cc1 (stereo unspecified) | normalized growth | 0.999
CC(C)(C)NCC(O)c1ccccc1Cl (stereo unspecified) | normalized growth | 0.987

Q: I would be grateful if you could share the reported normalized growth for `CC(=O)NCCCS(=O)(=O)O` .
Result: 1

Q: Next compound: C=CC(C1=CC(=O)C(OC)=CC1=O)c1ccccc1 (stereo unspecified)
Result: 0.966

Q: Field entry: `Oc1c(Cl)cc(Cl)c2cccnc12`
Result: 0.0636

Q: Note, next up: `Oc1c(Br)cc(Br)c2cccnc12`
Result: 0.145

Q: Proceed to CC(C)NCC(O)c1ccc(O)c(O)c1 (stereo unspecified)
Result: 0.994

Q: And for C[C@H]1[C@H]2CCC3C4CC=C5C[C@@H](N(C)C)CC[C@]5(C)C4CC[C@@]32CN1C (stereo partly specified) ?
Result: 0.992

Q: Item: `CC(=O)Oc1ccc(Cl)c2cccnc12`
Result: 0.0644

Q: For Nc1ncnc2c1ncn2C1O[C@H](COP(=O)(O)O)[C@@H](O)[C@H]1O (stereo partly specified) then?
Result: 1
